Target: HRgpA-6H (Porphyromonas gingivalis) (UniProt P28784)
Test: ELISA, FASEBA Fab on coated HRgpA-6H
Property: Ratio OD(Variant)/OD(WT); scope: individual binders

{"BINDER": "KB001 mouse Fab VL S53E (Fab, V domains shown) VH: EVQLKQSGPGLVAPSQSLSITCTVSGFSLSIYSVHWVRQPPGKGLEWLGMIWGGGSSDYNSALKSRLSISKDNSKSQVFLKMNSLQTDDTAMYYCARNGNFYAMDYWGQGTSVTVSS VL: QIVLTQSPAIMSASLGERVTMTCTASSSVSSSFLHWYQQKPGSSPQLWIYSTENLASGVPARFSGSGSGTSYSLTISSMEAEDAATYYCHQYHHSPYIYTFGGGTKLEIK", "Ratio OD(Variant)/OD(WT)": 0.973}
{"BINDER": "KB001 mouse Fab VL A25V (Fab, V domains shown) VH: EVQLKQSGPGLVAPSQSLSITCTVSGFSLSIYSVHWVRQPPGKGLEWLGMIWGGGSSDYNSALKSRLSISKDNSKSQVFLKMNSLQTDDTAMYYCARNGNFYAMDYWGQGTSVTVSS VL: QIVLTQSPAIMSASLGERVTMTCTVSSSVSSSFLHWYQQKPGSSPQLWIYSTSNLASGVPARFSGSGSGTSYSLTISSMEAEDAATYYCHQYHHSPYIYTFGGGTKLEIK", "Ratio OD(Variant)/OD(WT)": 0.981}
{"BINDER": "KB001 mouse Fab VL L34I (Fab, V domains shown) VH: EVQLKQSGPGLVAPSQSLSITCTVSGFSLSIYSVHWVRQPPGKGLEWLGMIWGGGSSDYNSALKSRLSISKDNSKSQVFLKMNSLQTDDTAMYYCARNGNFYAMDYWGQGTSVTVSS VL: QIVLTQSPAIMSASLGERVTMTCTASSSVSSSFIHWYQQKPGSSPQLWIYSTSNLASGVPARFSGSGSGTSYSLTISSMEAEDAATYYCHQYHHSPYIYTFGGGTKLEIK", "Ratio OD(Variant)/OD(WT)": 0.884}
